Counter-ions that a name gives are not always drawn.
Each entry below lists one item and its recorded melting point value.

CCOC(=O)/C=C/c1ccc(OC(=O)[C@@]2(C)CC[C@]3(C)CC[C@]4(C)C(=CC(=O)[C@@H]5[C@@]6(C)CC[C@H](OC(=O)[C@@H](N)CCSC)C(C)(C)[C@@H]6CC[C@]54C)[C@@H]3C2)c(OC)c1 (as salt: hydrochloride) :: 191 to 194 °C

Returns the measured melting point for the input compound. Input: CCOC(=O)/C=C/c1cccc(OC(=O)[C@@]2(C)CC[C@]3(C)CC[C@]4(C)C(=CC(=O)[C@@H]5[C@@]6(C)CC[C@H](O)C(C)(C)[C@@H]6CC[C@]54C)[C@@H]3C2)c1 173 to 175 °C

Returns the measured melting point for the input compound. Input: COC(=O)/C=C/c1cccc(OC(=O)[C@@]2(C)CC[C@]3(C)CC[C@]4(C)C(=CC(=O)[C@@H]5[C@@]6(C)CC[C@H](OC(=O)[C@@H](N)CC[Se]C)C(C)(C)[C@@H]6CC[C@]54C)[C@@H]3C2)c1 (as salt: hydrochloride) 194 to 196 °C

Returns the measured melting point for the input compound. Input: CCOC(=O)/C=C/c1ccc(OC(=O)[C@@]2(C)CC[C@]3(C)CC[C@]4(C)C(=CC(=O)[C@@H]5[C@@]6(C)CC[C@H](O)C(C)(C)[C@@H]6CC[C@]54C)[C@@H]3C2)c(OC)c1 224 to 226 °C
